Conditions: in acetonitrile, 329.45 K
VALUE TYPE: solubility (mole fraction)

[ask] Look up solubility (mole fraction): O=P1(O)OCC2(CO1)COP(=O)(O)OC2 (stereo unspecified)
[reply] 0.0032

----------
Conditions: in 2-butanone, 298.16 K
VALUE TYPE: solubility (mole fraction)
One number for each entry.

[ask] Look up solubility (mole fraction): O=P1(Oc2ccccc2)OCC2(CO1)COP(=O)(Oc1ccccc1)OC2 (stereo unspecified)
[reply] 0.00446

----------
Details: in chloroform, 318.18 K
VALUE TYPE: solubility (mole fraction)
Answers are plain numbers.

[ask] Look up solubility (mole fraction): O=P1(O)OCC2(CO1)COP(=O)(O)OC2 (stereo unspecified)
[reply] 0.00114

----------
Settings: in ethanol, 298.25 K
VALUE TYPE: solubility (mole fraction)
Answers are plain numbers.

[ask] Look up solubility (mole fraction): COc1ccc(P(=O)(c2ccc(OC)cc2)c2ccc(OC)cc2)cc1
[reply] 0.00037

----------
Settings: in 2-butanone, 308.14 K
VALUE TYPE: solubility (mole fraction)
Numbers only.

Solved entries (count: 3):
| ENTRY SMILES | solubility (mole fraction) |
| --- | --- |
| O=P(O)(CO)c1ccccc1 | 0.0022 |
| COc1ccc(P(c2ccc(OC)cc2)c2ccc(OC)cc2)cc1 | 0.00815 |
| O=C(O)CCP(=O)(O)c1ccccc1 | 0.00127 |

Next up:
[ask] Look up solubility (mole fraction): COc1ccc(P(=O)(c2ccc(OC)cc2)c2ccc(OC)cc2)cc1
[reply] 0.00907

----------
Details: in acetone, 293.16 K
Provide the recorded solubility (mole fraction) for the entries that follow.
One number for each entry.

| ENTRY SMILES | solubility (mole fraction) |
| --- | --- |
| O=P(O)(CO)c1ccccc1 | 0.0015 |

Next up:
[ask] Look up solubility (mole fraction): O=C(O)CCP(=O)(O)c1ccccc1
[reply] 0.00074

----------
Settings: in benzene, 338.34 K
VALUE TYPE: solubility (mole fraction)
Numbers only.

[ask] Look up solubility (mole fraction): O=P1(Oc2ccccc2)OCC2(CO1)COP(=O)(Oc1ccccc1)OC2 (stereo unspecified)
[reply] 0.00143

----------
Provide the recorded solubility (mole fraction) for the entries that follow.
Conditions: in benzene, 318.17 K
Numbers only.

Solved entries (count: 3):
| ENTRY SMILES | solubility (mole fraction) |
| --- | --- |
| COc1ccc(P(=O)(c2ccc(OC)cc2)c2ccc(OC)cc2)cc1 | 0.00094 |
| O=C(O)CCP(=O)(O)c1ccccc1 | 0.00126 |
| O=P(O)(CO)c1ccccc1 | 0.0022 |

[ask] Look up solubility (mole fraction): COc1ccc(P(c2ccc(OC)cc2)c2ccc(OC)cc2)cc1
[reply] 0.00082

----------
Details: in methanol, 322.65 K
VALUE TYPE: solubility (mole fraction)
One number for each entry.

[ask] Look up solubility (mole fraction): COc1ccc(P(=O)(c2ccc(OC)cc2)c2ccc(OC)cc2)cc1
[reply] 0.00098

----------
Provide the recorded solubility (mole fraction) for the entries that follow.
Conditions: in benzene, 323.16 K

| MOLECULE | solubility (mole fraction) |
| --- | --- |
| O=C(O)CCP(=O)(O)c1ccccc1 | 0.00134 |
| COc1ccc(P(c2ccc(OC)cc2)c2ccc(OC)cc2)cc1 | 0.00099 |
| COc1ccc(P(=O)(c2ccc(OC)cc2)c2ccc(OC)cc2)cc1 | 0.00112 |
| O=P(O)(CO)c1ccccc1 | 0.0027 |

Next up:
[ask] Look up solubility (mole fraction): O=P1(O)OCC2(CO1)COP(=O)(O)OC2 (stereo not given)
[reply] 0.00103

----------
Details: in ethyl acetate, 318.35 K
VALUE TYPE: solubility (mole fraction)
One number for each entry.

[ask] Look up solubility (mole fraction): O=P1(Oc2ccccc2)OCC2(CO1)COP(=O)(Oc1ccccc1)OC2 (stereo unspecified)
[reply] 0.00281

----------
Details: in diethyl ether, 303.55 K
VALUE TYPE: solubility (mole fraction)
Give bare numbers.

[ask] Look up solubility (mole fraction): O=P1(Oc2ccccc2)OCC2(CO1)COP(=O)(Oc1ccccc1)OC2 (stereo unspecified)
[reply] 0.00275

----------
Settings: in 2-butanone, 318.19 K
VALUE TYPE: solubility (mole fraction)

[ask] Look up solubility (mole fraction): O=P1(Oc2ccccc2)OCC2(CO1)COP(=O)(Oc1ccccc1)OC2 (stereo unspecified)
[reply] 0.00733

----------
Conditions: in acetonitrile, 315.45 K
VALUE TYPE: solubility (mole fraction)

[ask] Look up solubility (mole fraction): O=P1(O)OCC2(CO1)COP(=O)(O)OC2 (stereo unspecified)
[reply] 0.001

----------
Conditions: in methanol, 293.24 K
VALUE TYPE: solubility (mole fraction)

[ask] Look up solubility (mole fraction): O=P1(Oc2ccccc2)OCC2(CO1)COP(=O)(Oc1ccccc1)OC2 (stereo unspecified)
[reply] 0.00271

----------
Conditions: in ethyl acetate, 333.37 K
VALUE TYPE: solubility (mole fraction)
One number for each entry.

[ask] Look up solubility (mole fraction): O=P1(Oc2ccccc2)OCC2(CO1)COP(=O)(Oc1ccccc1)OC2 (stereo unspecified)
[reply] 0.00459

----------
Settings: in water, 357.11 K
VALUE TYPE: solubility (mole fraction)
Answers are plain numbers.

[ask] Look up solubility (mole fraction): O=P(O)(CO)c1ccccc1
[reply] 0.312

----------
Settings: in 2-butanone, 333.15 K
VALUE TYPE: solubility (mole fraction)

[ask] Look up solubility (mole fraction): O=C(O)CCP(=O)(O)c1ccccc1
[reply] 0.00395

----------
Conditions: in water, 358.25 K
VALUE TYPE: solubility (mole fraction)
Answers are plain numbers.

[ask] Look up solubility (mole fraction): O=P1(Oc2ccccc2)OCC2(CO1)COP(=O)(Oc1ccccc1)OC2 (stereo unspecified)
[reply] 0.00371

----------
Settings: in water, 343.26 K
VALUE TYPE: solubility (mole fraction)
Numbers only.

[ask] Look up solubility (mole fraction): O=P1(Oc2ccccc2)OCC2(CO1)COP(=O)(Oc1ccccc1)OC2 (stereo unspecified)
[reply] 0.00188

----------
Settings: in acetonitrile, 293.31 K
VALUE TYPE: solubility (mole fraction)
Numbers only.

[ask] Look up solubility (mole fraction): O=P1(Oc2ccccc2)OCC2(CO1)COP(=O)(Oc1ccccc1)OC2 (stereo unspecified)
[reply] 0.00156

----------
Settings: in acetone, 293.17 K
VALUE TYPE: solubility (mole fraction)
Give bare numbers.

[ask] Look up solubility (mole fraction): O=P1(Oc2ccccc2)OCC2(CO1)COP(=O)(Oc1ccccc1)OC2 (stereo unspecified)
[reply] 0.00237

----------
Conditions: in ethanol, 322.35 K
VALUE TYPE: solubility (mole fraction)

[ask] Look up solubility (mole fraction): COc1ccc(P(=O)(c2ccc(OC)cc2)c2ccc(OC)cc2)cc1
[reply] 0.00168

----------
Conditions: in 2-ethoxyethanol, 343.16 K
VALUE TYPE: solubility (mole fraction)
Answers are plain numbers.

[ask] Look up solubility (mole fraction): O=P1(Oc2ccccc2)OCC2(CO1)COP(=O)(Oc1ccccc1)OC2 (stereo unspecified)
[reply] 0.0161

----------
Details: in toluene, 343.45 K
VALUE TYPE: solubility (mole fraction)
Give bare numbers.

[ask] Look up solubility (mole fraction): O=P1(Oc2ccccc2)OCC2(CO1)COP(=O)(Oc1ccccc1)OC2 (stereo unspecified)
[reply] 0.00781

----------
Settings: in ethanol, 308.14 K
VALUE TYPE: solubility (mole fraction)
Numbers only.

[ask] Look up solubility (mole fraction): COc1ccc(P(c2ccc(OC)cc2)c2ccc(OC)cc2)cc1
[reply] 0.00142

----------
Settings: in ethanol, 313.16 K
VALUE TYPE: solubility (mole fraction)

[ask] Look up solubility (mole fraction): COc1ccc(P(c2ccc(OC)cc2)c2ccc(OC)cc2)cc1
[reply] 0.00173

----------
Details: in 2-ethoxyethanol, 328.15 K
VALUE TYPE: solubility (mole fraction)
One number for each entry.

[ask] Look up solubility (mole fraction): O=P1(Oc2ccccc2)OCC2(CO1)COP(=O)(Oc1ccccc1)OC2 (stereo unspecified)
[reply] 0.0104

----------
Conditions: in 2-butanone, 303.16 K
VALUE TYPE: solubility (mole fraction)
Give bare numbers.

[ask] Look up solubility (mole fraction): O=P1(O)OCC2(CO1)COP(=O)(O)OC2 (stereo unspecified)
[reply] 0.0008

----------
Conditions: in 2-butanone, 313.16 K
VALUE TYPE: solubility (mole fraction)
Numbers only.

| COMPOUND | VALUE TYPE | RESULT |
| --- | --- | --- |
| COc1ccc(P(c2ccc(OC)cc2)c2ccc(OC)cc2)cc1 | solubility (mole fraction) | 0.00884 |
| O=P1(O)OCC2(CO1)COP(=O)(O)OC2 (stereo unspecified) | solubility (mole fraction) | 0.0011 |
| O=P(O)(CO)c1ccccc1 | solubility (mole fraction) | 0.0024 |
| O=C(O)CCP(=O)(O)c1ccccc1 | solubility (mole fraction) | 0.00163 |

Okay, here is my list. What is solubility (mole fraction) for each of these?
1. O=P1(Oc2ccccc2)OCC2(CO1)COP(=O)(Oc1ccccc1)OC2 (stereo unspecified)
2. COc1ccc(P(=O)(c2ccc(OC)cc2)c2ccc(OC)cc2)cc1

[reply]
0.00638
0.0102
